This collection of values is drawn from patent US7375083B2.

test: Intranasal bioavailability of hydrocodone conjugates in rats, LC/MS/MS; details: male, Sprague-Dawley, rat, plasma, other: intranasal, 1 mg/kg
metric_name: concentration at 0 min (ng/mL)
A number alone suffices; assume ng/mL.

State the recorded concentration at 0 min for this entry: COc1ccc2c3c1O[C@H]1C(=O)CC[C@H]4[C@@H](C2)N(C)CC[C@]314 [Hydrocodone, reference compound]
0

====

test: Oral bioavailability in rats at escalating doses, LC/MS/MS; details: male, Sprague-Dawley, rat, in vivo, po, 3 mg/kg
metric_name: Tmax (h)
A number alone suffices; assume h.

State the recorded Tmax for this entry: CC(Cc1ccccc1)NC(=O)C(N)CCCCN [L-lysine-d-amphetamine]
1.5

====

test: Oral bioavailability in rats at escalating doses, LC/MS/MS; conditions: male, Sprague-Dawley, rat, in vivo, po, 3 mg/kg
metric_name: Cmax
Give the value; after it, write the unit.

State the recorded Cmax for this entry: CC(Cc1ccccc1)NC(=O)C(N)CCCCN (stereo not shown)
0.135 µg/mL

====

Below, each entry is listed with its recorded AUC (ng/ml h) 0-8 h.
assay: Oral bioavailability of hydrocodone conjugates in rats, LC/MS/MS; conditions: oral, 5 mg/kg dose, hydrocodone plus hydromorphone
Where a SMILES comes first, the peptide text is derived from it. The star is where a group is joined. X1 = COc1ccc2c3c1O[C@H]1C(O*)=CC[C@H]4[C@@H](C2)N(C)CC[C@]314
A number alone suffices; assume µg·h/mL.

These solved cases illustrate the format of a correct answer.
>  <compound>
CC[C@H](C)[C@H](NC(=O)[C@H](Cc1ccc(O)cc1)NC(=O)[C@@H](N)Cc1ccc(O)cc1)C(=O)OC1=CC[C@H]2[C@H]3Cc4ccc(OC)c5c4[C@@]2(CCN3C)[C@H]1O5 [YYI-HC, Tyr-Tyr-Ile-Hydrocodone]

>  <AUC (ng/ml h) 0-8 h, µg·h/mL>
0.033

$$$$
>  <compound>
CC[C@H](C)[C@H](NC(=O)[C@H](Cc1ccccc1)NC(=O)[C@H](Cc1ccccc1)NC(=O)[C@H](CCC(=O)O)NC(=O)[C@@H](N)CCC(=O)O)C(=O)OC1=CC[C@H]2[C@H]3Cc4ccc(OC)c5c4[C@@]2(CCN3C)[C@H]1O5 [EEFFI[SEQ ID NO: 5]-HC] (H-EEFFI-X1)

>  <AUC (ng/ml h) 0-8 h, µg·h/mL>
0.068

$$$$
>  <compound>
CC[C@H](C)[C@H](NC(=O)[C@H](CC(=O)O)NC(=O)[C@@H](N)CC(=O)O)C(=O)OC1=CC[C@H]2[C@H]3Cc4ccc(OC)c5c4[C@@]2(CCN3C)[C@H]1O5 [DDI-HC, Asp-Asp-Ile-Hydrocodone]

>  <AUC (ng/ml h) 0-8 h, µg·h/mL>
0.145

$$$$

Please turn your attention to the following entry.
State the recorded AUC (ng/ml h) 0-8 h for this entry: CC[C@H](C)[C@H](NC(=O)[C@H](Cc1ccccc1)NC(=O)[C@H](Cc1ccccc1)NC(=O)[C@H](Cc1ccc(O)cc1)NC(=O)[C@@H](N)Cc1ccc(O)cc1)C(=O)OC1=CC[C@H]2[C@H]3Cc4ccc(OC)c5c4[C@@]2(CCN3C)[C@H]1O5 [YYFFI[SEQ ID NO: 8]-HC] (H-YYFFI-X1)
0.105
